Biological target: Protein cereblon/Androgen receptor (Homo sapiens, UniProt P10275+Q96SW2)
Test: Protac activity at CRBN/AR in human VCaP cells assessed as induction of AR degradation at 0.001 uM measured after 24 hrs by western blot analysis relative to control
Format: cell-based
Sequence (P10275 whole entry, looked up): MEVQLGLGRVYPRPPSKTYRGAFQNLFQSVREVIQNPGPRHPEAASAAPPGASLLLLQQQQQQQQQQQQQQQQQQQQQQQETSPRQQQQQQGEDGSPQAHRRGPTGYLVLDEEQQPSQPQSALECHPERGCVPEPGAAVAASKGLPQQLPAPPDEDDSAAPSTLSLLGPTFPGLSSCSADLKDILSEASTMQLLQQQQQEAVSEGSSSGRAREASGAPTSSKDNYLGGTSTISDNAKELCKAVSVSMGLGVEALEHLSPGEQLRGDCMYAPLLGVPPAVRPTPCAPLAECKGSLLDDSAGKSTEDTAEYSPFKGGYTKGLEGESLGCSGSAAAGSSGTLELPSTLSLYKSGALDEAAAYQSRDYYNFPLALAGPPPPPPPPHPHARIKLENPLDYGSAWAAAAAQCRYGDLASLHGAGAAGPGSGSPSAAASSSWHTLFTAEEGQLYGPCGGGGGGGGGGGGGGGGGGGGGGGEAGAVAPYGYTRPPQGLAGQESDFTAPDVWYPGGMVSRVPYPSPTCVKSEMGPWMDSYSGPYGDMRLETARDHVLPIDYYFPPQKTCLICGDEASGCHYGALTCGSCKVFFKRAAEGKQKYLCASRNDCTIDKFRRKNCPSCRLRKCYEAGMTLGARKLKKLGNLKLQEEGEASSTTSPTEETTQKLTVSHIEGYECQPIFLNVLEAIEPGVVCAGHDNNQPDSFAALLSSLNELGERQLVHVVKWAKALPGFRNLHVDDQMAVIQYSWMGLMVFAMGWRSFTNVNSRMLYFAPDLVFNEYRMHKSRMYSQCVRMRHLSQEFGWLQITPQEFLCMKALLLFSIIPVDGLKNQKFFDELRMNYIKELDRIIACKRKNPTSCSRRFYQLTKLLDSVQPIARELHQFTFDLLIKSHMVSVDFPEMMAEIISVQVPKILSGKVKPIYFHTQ
Sequence (Q96SW2 whole entry, looked up): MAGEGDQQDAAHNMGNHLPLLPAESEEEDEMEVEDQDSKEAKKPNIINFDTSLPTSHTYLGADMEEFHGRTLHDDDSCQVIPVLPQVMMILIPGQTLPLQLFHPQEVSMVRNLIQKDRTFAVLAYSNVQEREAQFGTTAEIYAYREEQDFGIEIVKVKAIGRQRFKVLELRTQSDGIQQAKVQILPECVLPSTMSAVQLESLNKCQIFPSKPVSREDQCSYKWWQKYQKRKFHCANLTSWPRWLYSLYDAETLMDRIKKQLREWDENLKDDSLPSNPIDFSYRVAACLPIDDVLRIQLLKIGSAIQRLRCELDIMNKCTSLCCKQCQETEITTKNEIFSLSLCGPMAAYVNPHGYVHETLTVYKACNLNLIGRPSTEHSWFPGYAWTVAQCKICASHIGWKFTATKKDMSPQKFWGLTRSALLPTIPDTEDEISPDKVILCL
Param label: returns fulfilled when Activity < 40%, returns not fulfilled otherwise, including exact equality.

Examples with answers:
- molecule: "CC1(C)[C@H](NC(=O)c2ccc(NCCCCCCCCNc3ccc4c(c3)C(=O)N(C3CCC(=O)NC3=O)C4=O)cc2)C(C)(C)[C@H]1Oc1ccc(C#N)c(Cl)c1 (some centres not stated)"
  category: "not fulfilled"
- molecule: "CC1(C)[C@H](NC(=O)c2ccc(N3CCN(CCCCNc4cccc5c4C(=O)N(C4CCC(=O)NC4=O)C5=O)CC3)cc2)C(C)(C)[C@H]1Oc1ccc(C#N)c(Cl)c1 (some centres not stated)"
  category: "fulfilled"
- molecule: "CC1(C)[C@H](NC(=O)c2ccc(NCCCCNc3ccc4c(c3)C(=O)N(C3CCC(=O)NC3=O)C4=O)cc2)C(C)(C)[C@H]1Oc1ccc(C#N)c(Cl)c1 (some centres not stated)"
  category: "not fulfilled"
- molecule: "CC1(C)[C@H](NC(=O)c2ccc(N3CCN(C4CC5(C4)CN(c4ccc6c(c4)C(=O)N(C4CCC(=O)NC4=O)C6=O)C5)CC3)cc2)C(C)(C)[C@H]1Oc1ccc(C#N)c(Cl)c1 (some centres not stated)"
  category: "fulfilled"
- molecule: "CC1(C)[C@H](NC(=O)c2ccc(N3CCN(C4CN(c5ccc6c(c5)C(=O)N(C5CCC(=O)NC5=O)C6=O)C4)CC3)cc2)C(C)(C)[C@H]1Oc1ccc(C#N)c(Cl)c1 (some centres not stated)"
  category: "not fulfilled"
- molecule: "CC1(C)[C@@H](NC(=O)c2ccc(N3CCN(CC4CCN(c5ccc6c(c5)C(=O)N(C5CCC(=O)NC5=O)C6=O)CC4)CC3)cc2)C[C@@H]1Oc1ccc(C#N)c(Cl)c1 (some centres not stated)"
  category: "fulfilled"

Problem: Determine if CC1(C)[C@H](NC(=O)c2ccc(N3CCC4(CC3)CC(Nc3ccc5c(c3)C(=O)N(C3CCC(=O)NC3=O)C5=O)C4)cc2)C(C)(C)[C@H]1Oc1ccc(C#N)c(Cl)c1 (some centres not stated) shows Activity strictly lower than 40%.
Result: fulfilled

###

Measured Activity accompanies every entry in the list below.
Molecular target: Protein cereblon/Androgen receptor (Homo sapiens, UniProt P10275+Q96SW2)
Assay: Protac activity at CRBN/AR in human VCAP cells assessed as induction of AR degradation at 1 uM by western blot analysis relative to control
Assay type: cell-based
Conditions: time 24.0 hrs
Remember to put the unit after the number in your answer.

Below, each entry is followed by its recorded Activity result.
- compound: "CC1(C)[C@H](NC(=O)c2ccc(N3CCN(C4CCC5(CC4)CN(c4ccc6c(c4)C(=O)N(C4CCC(=O)NC4=O)C6=O)C5)CC3)cc2)C(C)(C)[C@H]1Oc1ccc(C#N)c(Cl)c1 (stereo partly drawn)"
  Activity: "82%"
- compound: "CC1(C)[C@H](NC(=O)c2ccc(N3CCC4(CCC(Nc5ccc6c(c5)C(=O)N(C5CCC(=O)NC5=O)C6=O)CC4)CC3)cc2)C(C)(C)[C@H]1Oc1ccc(C#N)c(Cl)c1 (stereo partly drawn)"
  Activity: "57%"

Quick note, Activity for CC1(C)[C@H](NC(=O)c2ccc(N3CCN(CC4CCN(c5ccc6c(c5)C(=O)N(C5CCC(=O)NC5=O)C6=O)CC4)CC3)cc2)C(C)(C)[C@H]1Oc1cnc(C#N)c(C(F)(F)F)c1 (stereo partly drawn) landed at 41%

###

Measured Activity accompanies every entry in the list below.
Biological target: Protein cereblon/Androgen receptor (Homo sapiens, UniProt P10275+Q96SW2)
Assay: Protac activity at CRBN/AR in human VCaP cells assessed as induction of AR degradation at 0.01 uM measured after 24 hrs by western blot analysis relative to control
Format: cell-based
Provide the reading as a plain figure in %.

- compound: "CC1(C)[C@H](NC(=O)c2ccc(N3CCN(C4CC5(CCN(c6ccc7c(c6)C(=O)N(C6CCC(=O)NC6=O)C7=O)C5)C4)CC3)cc2)C(C)(C)[C@H]1Oc1ccc(C#N)c(Cl)c1 (stereo partly specified)"
  Activity (%): 80
- compound: "CC1(C)[C@H](NC(=O)c2ccc(NCCCCCNc3cccc4c3C(=O)N(C3CCC(=O)NC3=O)C4=O)cc2)C(C)(C)[C@H]1Oc1ccc(C#N)c(Cl)c1 (stereo partly specified)"
  Activity (%): 9

Quick note, Activity for CC1(C)[C@H](NC(=O)c2ccc(N3CCN(CCCCNc4ccc5c(c4)C(=O)N(C4CCC(=O)NC4=O)C5=O)CC3)cc2)C(C)(C)[C@H]1Oc1ccc(C#N)c(Cl)c1 (stereo partly specified) landed at 63

Quick note, Activity for CC1(C)[C@H](NC(=O)c2ccc(NCCCCCNc3ccc4c(c3)C(=O)N(C3CCC(=O)NC3=O)C4=O)cc2)C(C)(C)[C@H]1Oc1ccc(C#N)c(Cl)c1 (stereo partly specified) landed at 84

Quick note, Activity for CC1(C)[C@H](NC(=O)c2ccc(N3CCN(C4CCC5(CC4)CN(c4ccc6c(c4)C(=O)N(C4CCC(=O)NC4=O)C6=O)C5)CC3)cc2)C(C)(C)[C@H]1Oc1ccc(C#N)c(Cl)c1 (stereo partly specified) landed at 48

###

Molecular target: Protein cereblon/Androgen receptor (Homo sapiens, UniProt P10275+Q96SW2)
Assay: Protac activity at CRBN/AR in human VCaP cells assessed as induction of AR degradation measured after 24 hrs by western blot analysis
Sequence (P10275 whole entry): as the sequence (P10275 whole entry, looked up) above
Sequence (Q96SW2 whole entry): as the sequence (Q96SW2 whole entry, looked up) above
test_readout: pEC50
Please report pEC50 as the negative decimal logarithm of the molar concentration, giving only the number.

- compound: "CC1(C)[C@H](NC(=O)c2ccc(N3CCN(CC4CN(c5ccc6c(c5)C(=O)N(C5CCC(=O)NC5=O)C6=O)C4)CC3)cc2)C(C)(C)[C@H]1Oc1ccc(C#N)c(Cl)c1 (stereo not given in full)"
  pEC50: 9.70
- compound: "CC1(C)[C@H](NC(=O)c2ccc(N3CCN(C4CCN(c5ccc6c(c5)C(=O)N(C5CCC(=O)NC5=O)C6=O)CC4)CC3)cc2)C(C)(C)[C@H]1Oc1ccc(C#N)c(Cl)c1 (stereo not given in full)"
  pEC50: 9.10
- compound: "CC1(C)[C@H](NC(=O)c2ccc(N3CCN(CC4CCN(c5ccc6c(c5)C(=O)N(C5CCC(=O)NC5=O)C6=O)CC4)CC3)cc2)C(C)(C)[C@H]1Oc1ccc(C#N)c(Cl)c1 (stereo not given in full)"
  pEC50: 9.52
- compound: "CC1(C)[C@H](NC(=O)c2ccc(N3CCC(CN4CCN(c5ccc6c(c5)C(=O)N(C5CCC(=O)NC5=O)C6=O)CC4)CC3)cc2)C(C)(C)[C@H]1Oc1ccc(C#N)c(Cl)c1 (stereo not given in full)"
  pEC50: 9.40

// next item, pEC50 requested
Quick note, pEC50 for CC1(C)[C@H](NC(=O)c2ccc(N3CCC(N4CCN(c5ccc6c(c5)C(=O)N(C5CCC(=O)NC5=O)C6=O)CC4)CC3)cc2)C(C)(C)[C@H]1Oc1ccc(C#N)c(Cl)c1 (stereo not given in full) landed at 10.00

###

Assay: Plasma concentration in CB17 SCID mouse at 10 mg/kg, po measured after 6 hr by LC-MS/MS analysis
Type: ADME, organism-based
Measured concentration at 6 h accompanies every entry in the list below.
Provide the reading as a plain figure in ng/mL.

Below, each entry is followed by its recorded concentration at 6 h result.
- compound: "CC1(C)[C@H](NC(=O)c2ccc(N3CCN(CCCNc4ccc5c(c4)C(=O)N(C4CCC(=O)NC4=O)C5=O)CC3)cc2)C(C)(C)[C@H]1Oc1ccc(C#N)c(Cl)c1 (some centres undefined)"
  concentration at 6 h, ng/mL: 96.9
- compound: "CC1(C)[C@H](NC(=O)c2ccc(N3CCN(CCNc4ccc5c(c4)C(=O)N(C4CCC(=O)NC4=O)C5=O)CC3)cc2)C(C)(C)[C@H]1Oc1ccc(C#N)c(Cl)c1 (some centres undefined)"
  concentration at 6 h, ng/mL: 604
- compound: "CC1(C)[C@H](NC(=O)c2ccc(NCCCCCCNc3ccc4c(c3)C(=O)N(C3CCC(=O)NC3=O)C4=O)cc2)C(C)(C)[C@H]1Oc1ccc(C#N)c(Cl)c1 (some centres undefined)"
  concentration at 6 h, ng/mL: 1.6

Quick note, concentration at 6 h for CC1(C)[C@H](NC(=O)c2ccc(NCCCCCNc3ccc4c(c3)C(=O)N(C3CCC(=O)NC3=O)C4=O)cc2)C(C)(C)[C@H]1Oc1ccc(C#N)c(Cl)c1 (some centres undefined) landed at 2.9

###

Test: Plasma concentration in CB17 SCID mouse at 10 mg/kg, po measured after 1 hr by LC-MS/MS analysis
Assay type: ADME, organism-based
Measured concentration at 1 h accompanies every entry in the list below.
Provide the reading as a plain figure in ng/mL.

- molecule: "CC1(C)[C@H](NC(=O)c2ccc(NCCCCCCNc3ccc4c(c3)C(=O)N(C3CCC(=O)NC3=O)C4=O)cc2)C(C)(C)[C@H]1Oc1ccc(C#N)c(Cl)c1 (some centres undefined)"
  test_readout: "concentration at 1 h"
  endpoint_result: 16.9
- molecule: "CC1(C)[C@H](NC(=O)c2ccc(NCCCCCNc3ccc4c(c3)C(=O)N(C3CCC(=O)NC3=O)C4=O)cc2)C(C)(C)[C@H]1Oc1ccc(C#N)c(Cl)c1 (some centres undefined)"
  test_readout: "concentration at 1 h"
  endpoint_result: 111
- molecule: "CC1(C)[C@H](NC(=O)c2ccc(N3CCN(CCNc4ccc5c(c4)C(=O)N(C4CCC(=O)NC4=O)C5=O)CC3)cc2)C(C)(C)[C@H]1Oc1ccc(C#N)c(Cl)c1 (some centres undefined)"
  test_readout: "concentration at 1 h"
  endpoint_result: 1240

Quick note, concentration at 1 h for CC1(C)[C@H](NC(=O)c2ccc(N3CCN(CCCNc4ccc5c(c4)C(=O)N(C4CCC(=O)NC4=O)C5=O)CC3)cc2)C(C)(C)[C@H]1Oc1ccc(C#N)c(Cl)c1 (some centres undefined) landed at 267
